Measured IC50 values are reported for all entries that follow.
experiment: Displacement of [3H]PAF from rabbit PAF receptor by liquid scintillation counting; parameters: species or system Oryctolagus cuniculus
// units = µM; emit number, no label

Answered cases to consult:
>>> experimental_result("C[C@@H]1C(=O)O[C@H]2[C@H](O)[C@@]34[C@H]5C[C@@H](C(C)(C)C)[C@]36[C@@H](OC(=O)[C@@H]6O)O[C@@]4(C(=O)O5)[C@@]12O [GINKOLIDE B]")
19
>>> experimental_result("COc1ccc(C(=O)[C@H]2CO[C@H](c3cc(OC)c(OC)c(OC)c3)[C@H]2CO)cc1OC")
27

# ---- query compound ----
### Prompt Give me measured IC50, please, for this compound: `COc1ccc(C(=O)[C@H]2CO[C@H](c3ccc(OC)c(OC)c3)[C@H]2CO)cc1OC`
### Response 38
